Test system: Human Plasma
Assay method text: Human plasma anticoagulation, activated partial thromboplastin time (APTT)
Type: biochemical
Measurement setup: concentration required to double the clotting time
Where a name gives a salt, the structure may show the parent alone.
Kindly apply the following: 1 (yes) if Human Plasma Anticoagulation 2x Clotting time APTT is less than 200 ng/mL, 0 (no) in every other case.

Use these answered entries as a reference point.
>>> class_assignment("Cl.N=C(N)c1cc(CNC(=O)[C@@H]2CCCN2C(=O)[C@@H](CC2CCCCC2)NCC(=O)O)cs1 [Example 65]")
"1 (yes)"
>>> class_assignment("Cl.N=C(N)c1ccc(CNC(=O)[C@@H]2CCCN2C(=O)[C@@H](CC2CCCCC2)NCC(=O)O)nn1 [Example 69]")
"1 (yes)"
>>> class_assignment("Cl.Nc1ccc(CNC(=O)[C@@H]2CCCN2C(=O)[C@@H](CC2CCCCC2)NCC(=O)O)cn1 [Example 74]")
"0 (no)"
>>> class_assignment("N=C(N)c1ccc(CNC(=O)[C@@H]2CCCN2C(=O)[C@@H](CC2CCCCC2)NCC(=O)O)nc1 [Example 66]")
"1 (yes)"
>>> class_assignment("N=C(N)NCCCCNC(=O)[C@@H]1CCCN1C(=O)[C@@H]1NCC[C@H]2CCCC[C@H]21 [Example 61, trihydrochloride]")
"0 (no)"

Please examine the following record next.
Criterion: Human Plasma Anticoagulation 2x Clotting time APTT strictly below 200 ng/mL. Is it met by Cl.Cl.Cl.N=C(N)c1ccc(CNC(=O)[C@@H]2C[C@@H]3CCCC[C@@H]3N2C(=O)[C@H]2CCCCN2)cc1 (relative stereo) [Example 20, D-hPro-Ohi-p-NHCH2 C6 H4 C(NH)NH2.3HCl] ?
0 (no)

###

Target or test system: Human plasmin (Homo sapiens, UniProt P00747)
Construct: Human plasmin is purchased from Boehringer Mannheim; purchased Boehringer Mannheim, Indianapolis, Ind
Sequence (P00747 581-810 limits assumed): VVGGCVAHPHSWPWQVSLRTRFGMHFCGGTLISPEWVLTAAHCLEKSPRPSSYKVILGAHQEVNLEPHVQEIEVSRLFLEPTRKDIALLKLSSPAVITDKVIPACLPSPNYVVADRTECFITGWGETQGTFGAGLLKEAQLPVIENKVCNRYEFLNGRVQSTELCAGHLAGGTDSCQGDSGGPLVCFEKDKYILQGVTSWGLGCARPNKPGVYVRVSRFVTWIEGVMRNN
Sequence (P00747 97-580 partner limits assumed): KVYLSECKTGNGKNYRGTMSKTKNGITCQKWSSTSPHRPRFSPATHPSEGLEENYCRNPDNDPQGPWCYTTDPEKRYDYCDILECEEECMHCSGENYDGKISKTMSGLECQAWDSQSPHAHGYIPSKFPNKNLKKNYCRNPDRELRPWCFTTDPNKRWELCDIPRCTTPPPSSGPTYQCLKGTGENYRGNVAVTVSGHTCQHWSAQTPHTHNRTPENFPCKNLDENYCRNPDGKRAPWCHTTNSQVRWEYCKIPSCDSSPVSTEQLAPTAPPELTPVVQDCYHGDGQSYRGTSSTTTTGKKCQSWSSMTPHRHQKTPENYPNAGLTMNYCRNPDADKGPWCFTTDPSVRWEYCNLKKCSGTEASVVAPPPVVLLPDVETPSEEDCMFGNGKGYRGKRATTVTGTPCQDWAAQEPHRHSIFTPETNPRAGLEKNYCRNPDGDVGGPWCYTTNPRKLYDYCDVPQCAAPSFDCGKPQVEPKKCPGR
Assay method text: Kass, plasmin chromogenic substrate assay
Assay type: biochemical
Measurement setup: substrate H-D-Val-Leu-Lys-p-nitroanilide
Counter-ions that a name gives are not always drawn.
Recorded endpoint: Kass × 10^6 (L/mole) Plasmin

>>> result("N=C(N)NCCCNC(=O)[C@@H]1CCCN1C(=O)[C@H](N)Cc1ccccc1 [Example 7, D-Phe-Pro-NH(CH2)3 NHC(NH)NH2.HCl]")
"0.00022 × 10^6 L/mole"

// sample CCS(=O)(=O)N[C@H](Cc1ccccc1)C(=O)N1CCC[C@H]1C(=O)NCc1ccc(NC(=N)N)cc1 [Example 34] , its Kass × 10^6 (L/mole) Plasmin was 0.01 × 10^6 L/mole

// sample N=C(N)c1ccc(CNC(=O)[C@@H]2C[C@@H]3CCCC[C@@H]3N2C(=O)[C@H]2C[C@H]3CCCC[C@H]3CN2)cc1 (relative stereo) [Example 43] , its Kass × 10^6 (L/mole) Plasmin was 0.30 × 10^6 L/mole

// sample Cl.N=C(N)c1ccc(CNC(=O)[C@@H]2CCCN2C(=O)[C@@H](CC2CCCCC2)NCCC(=O)O)cc1 [Example 52] , its Kass × 10^6 (L/mole) Plasmin was 0.11 × 10^6 L/mole

// sample Cl.NCc1cccc(CNC(=O)[C@@H]2CCCN2C(=O)[C@H](N)Cc2ccccc2)c1 [Example 11, D-Phe-Pro-m-NHCH2 C6 H4 CH2 NH2.HCl] , its Kass × 10^6 (L/mole) Plasmin was 0.0060 × 10^6 L/mole

// sample CCS(=O)(=O)N[C@H](Cc1ccccc1)C(=O)N1CCC[C@H]1C(=O)NCc1cccc(NC(=N)N)c1 [Example 36] , its Kass × 10^6 (L/mole) Plasmin was < 0.001 × 10^6 L/mole
